Tested On: B2M (UniProt P61769 21-119)
Sequence (P61769 21-119 limits assumed): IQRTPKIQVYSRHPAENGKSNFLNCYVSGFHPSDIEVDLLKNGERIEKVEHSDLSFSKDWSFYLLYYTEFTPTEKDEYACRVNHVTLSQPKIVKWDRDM
Measurement Notes: ELISA
Measured Property: binding result

Binder: 2F1HS6LS#46 (antibody, human IgG1, kappa, V domains shown) VH: EVQLVESGGGLVQPGGSLRLSCAASGFTFSDYAMSWVRQAPGKGLEWVSRISQSGSYTYYADSVKGRFTISRDNSKNTLYLQMNSLRAEDTAVYYCAKEGTSSYRGWMDVWGQGTLVTVSS VL: DIQMTQSPSSLSASVGDRVTITCRASQSISNWLNWYQQKPGKAPKLLIYATSRLQSGVPSRFSGSGSGTDFTLTISSLQPEDFATYYCQQSYSTPWTFGQGTKVEIKR
Measured Property: binding result
Recorded Measurement: no binding

Binder: 2F1CDRH3#17 (antibody, human IgG1, kappa, V domains shown) VH: EVQLVESGGGLVQPGGSLRLSCAASGFTFSDYAMSWVRQAPGKGLEWVSRISGTGSYKYYADSVKGRFTISRDNSKNTLYLQMNSLRAEDTAVYYCAKEGTSTYRGWMDVWGQGTLVTVSS VL: DIQMTQSPSSLSASVGDRVTITCRASQSISNYLNWYQQKPGKAPKLLIYATSRLQSGVPSRFSGSGSGTDFTLTISSLQPEDFATYYCQQSYTTPWTFGQGTKVEIKR
Measured Property: binding result
Recorded Measurement: no binding

Binder: 2F1_LS#17 (antibody, human IgG1, kappa, V domains shown) VH: EVQLVESGGGLVQPGGSLRLSCAASGFTFSSYAMSWVRQAPGKGLEWVSRISGSGGYIYYADSVKGRFTISRDNSKNTLYLQMNSLRAEDTAVYYCAKEGTSSYRGWMDVWGQGTLVTVSS VL: DIQMTQSPSSLSASVGDRVTITCRASQSISNYLNWYQQKPGKAPKLLIYAASRLQSDVPSRFSGSGSGTDFTLTISSLQPEDFATYYCQQSYSTPWTFGQGTKVEIKR
Measured Property: binding result
Recorded Measurement: no binding
